Reported melting point values are given for each entry in this list.
experimental_endpoint: melting point

| compound | experimental_endpoint | readout_value |
| --- | --- | --- |
| N#CCC(O)(Cn1cncn1)c1ccc(Cl)cc1Cl (stereo not given) | melting point | 217 to 219 °C |
| COc1ccc(COc2cc(NC(C)=O)c(Cl)cc2C(=O)CCCCCl)cc1 | melting point | 147 to 149 °C |
| O=C1CCCOc2ccc(O)cc21 | melting point | 116 to 120 °C |
| O=C(O)c1ccc(NCc2cc(Cl)c(Cl)s2)cc1 | melting point | 225 to 227 °C |
| COc1ccc(-c2nc(-c3cccn3CC(=O)O)sc2-c2ccc(OC)cc2)cc1 | melting point | 198 to 200 °C |
| COc1cc2c(cc1OC)CN(CCCc1ccc(NC(=O)c3nc4cc(C)c(C)cc4nc3OC)cc1)CC2 | melting point | 164 to 166 °C |
| N#CC(N)c1ccc(F)cc1F (stereo not given) | melting point | 52 °C |
| CCOC(=O)c1ccc(/C=C(\C)c2ccc(OC)c(C(C)(C)C)c2)cc1 | melting point | 71.5 °C |
| COc1cc(C(=O)Nc2ccc(N3CCCC3)cc2C(C)=O)ccc1OCc1ccccc1 | melting point | 152 to 154 °C |
| O=C(Nc1nc2ccc(Sc3nnc4ccc(-c5cccc(F)c5)cn34)cc2s1)C1CC1 | melting point | > 260 °C |
